Origin of the recorded values: ChEMBL document CHEMBL1127457

protocol.summary: Partition coefficient (logD7.4)
condition: octanol/water, pH 7.4
measurement.name: logD

Below: 2 compounds and their reported logD.
structure_smiles=CCCC[C@H](O[C@@H](Cc1ccccc1)C(=O)N1CCC(OCOC)CC1)C(=O)N[C@@H](CC1CCCCC1)[C@@H](O)C[C@H](C(=O)NCCNc1n[nH]c(N)n1)C(C)C measurement_name=logD endpoint_value=4
structure_smiles=CCCC[C@H](O[C@@H](Cc1ccccc1)C(=O)N1CCC(OCOC)CC1)C(=O)N[C@@H](CC1CCCCC1)[C@@H](O)C[C@H](C(=O)NCCCNc1nnc(N)[nH]1)C(C)C measurement_name=logD endpoint_value=4.2

Then there is this compound:
For the compound shown here, CCCC[C@H](N[C@@H](Cc1ccccc1)C(=O)N1CCC(OCOC)CC1)C(=O)N[C@@H](CC1CCCCC1)[C@@H](O)C[C@H](C(=O)NCc1cccnc1)C(C)C , give the reported logD.
> 5
